System: RPMI-8226 leukemia
Assay: NCI tumour cell line growth inhibition, 48 h
Where a SMILES comes first, the peptide text is derived from it.
property.name: TGI

I have this compound here, CCN(CC)c1c(C(=O)/C=C/c2ccc(F)cc2)c(-c2ccccc2)nn(C)c1=O , and I need its recorded TGI.
9.89 µM

I have this compound here, CCNC(=O)N1CCc2c(Cl)c3c(c(OC)c2[C@@H]1[C@H]1OCc2c1ccc(OC)c2OC)OCCO3 , and I need its recorded TGI.
> 100 µM

I have this compound here, S=C1Nc2cnc3ccccc3c2SC1c1ccccc1 (stereo not given) , and I need its recorded TGI.
> 100 µM

I have this compound here, COc1ccc(N(CN2C(=O)CCC2OC)C(C)=O)cc1 (stereo not given) , and I need its recorded TGI.
> 100 µM

I have this compound here, CN(C)C(=S)/N=c1\ssc(=Nc2ccccc2)n1C , and I need its recorded TGI.
> 100 µM

I have this compound here, CCC(C)C1NC(=O)C(CCCCN)NC(=O)C(CCCCN)NC(=O)C(CC(C)C)NC(=O)C(CCCCN)NC(=O)C(C(C)CC)NC(=O)C(C(C)C)NC(=O)C(C(C)CC)NC(=O)C(CCCCN)NC(=O)C(CCCCN)NC(=O)C(C)NC(=O)C(CCCCN)NC(=O)C(CC(C)C)NC1=O (stereo not given) (cyclo(AKKIVIKLKKILK); configuration not given here) , and I need its recorded TGI.
3.74 µM

I have this compound here, O=C(Nc1cc(Cl)c(Cl)cc1Cl)C(=O)C(C(=O)c1ccccc1)C1OC(=O)c2ccccc21 (stereo not given) , and I need its recorded TGI.
> 100 µM

I have this compound here, NC(=O)CC(N)C(N)=O (stereo not given) , and I need its recorded TGI.
> 100 µM

I have this compound here, Cc1c(C)n(COCCO)c2ncnc(N)c12 , and I need its recorded TGI.
> 100 µM

I have this compound here, O=C([CH-]C(=O)C(F)(F)F)c1ccccc1.O=C([CH-]C(=O)C(F)(F)F)c1ccccc1.[O]=[U+2]=[O] , and I need its recorded TGI.
> 100 µM

I have this compound here, CC1(c2ccc(Cl)cc2)NC(=NCCO)c2ccccc21 (stereo not given) , and I need its recorded TGI.
19.5 µM

I have this compound here, COCCOc1nc(-c2ccccc2)nc2ccccc12 , and I need its recorded TGI.
45.5 µM

I have this compound here, CC1CC(c2ccccc2)Nc2nc3ccccc3n21 (stereo not given) , and I need its recorded TGI.
> 100 µM

I have this compound here, N/N=c1\c2ccccc2c2ccc3c4ccccc4/c(=N\N)c3c12 , and I need its recorded TGI.
> 100 µM

I have this compound here, O=c1cc(-c2ccccc2)[nH]c2ccc(N3CCCC3)cc12 , and I need its recorded TGI.
> 100 µM

I have this compound here, CCOP(=O)(OCC)C(C)(C)OC(=O)NC(F)(F)F , and I need its recorded TGI.
> 100 µM

I have this compound here, Oc1ccc2c(c1)OCC1(O)Cc3cc(O)c(O)cc3C21 (stereo not given) , and I need its recorded TGI.
85.1 µM

I have this compound here, c1ccc(N=C(N2CCCCC2)N(CCN2CCCCC2)c2ccccc2)cc1 , and I need its recorded TGI.
0.627 µM

I have this compound here, COc1ccc(/C=C/C(=O)c2sc(Nc3ccc([N+](=O)[O-])cc3)nc2C)cc1 , and I need its recorded TGI.
47.9 µM

I have this compound here, CC[N-]c1nnnn1CC.[Au+].c1ccc([PH+](c2ccccc2)c2ccccc2)cc1 , and I need its recorded TGI.
4.48 µM

I have this compound here, Cn1cc(NC(=O)c2cc(NC(=O)CCCCCCCCCC(=O)Nc3cc(C(=O)Nc4cc(C(=O)NCCC(=N)N)n(C)c4)n(C)c3)cn2C)cc1C(=O)NCCC(=N)N , and I need its recorded TGI.
54.9 µM

I have this compound here, c1cncc(CNCCN2CCNCC2)c1 , and I need its recorded TGI.
> 100 µM

I have this compound here, CCCCNC(=O)OCCN=C1c2ccccc2C(Br)C(Br)c2ccccc21 (stereo not given) , and I need its recorded TGI.
62.1 µM

I have this compound here, Cn1cc(-c2csc(-c3c[nH]c4ccccc34)n2)c2cccnc21 , and I need its recorded TGI.
> 100 µM

I have this compound here, Nc1nc2c3c(ncn3CC(O)CO2)n1 (stereo not given) , and I need its recorded TGI.
> 100 µM

I have this compound here, COc1ccc(C2NC(=O)c3cc4c(cc3N2)OCO4)cc1 (stereo not given) , and I need its recorded TGI.
> 100 µM

I have this compound here, CN(C)CCNC(=O)C1COc2cc(-c3cc(=O)c4ccccc4o3)ccc2O1 (stereo not given) , and I need its recorded TGI.
85.1 µM

I have this compound here, COc1cc(C2c3cc4c(cc3[C@@H](Nc3ccc(F)cc3)C3CO[C@@H](O)[C@H]23)OCO4)cc(OC)c1O (stereo not given in full) , and I need its recorded TGI.
> 25 µM

I have this compound here, CN1CCN(Cc2nc3cccc4c3c([n+]2[O-])-c2ccccc2-4)CC1 , and I need its recorded TGI.
> 74.4 µM

I have this compound here, CCOC(=O)C1=C(C)N2CCOC2(C)C(C(=O)OC)C1c1cccc(Cl)c1 (stereo not given) , and I need its recorded TGI.
> 100 µM

I have this compound here, CCOC(=O)c1ccc(C(=O)/C(C#N)=C2\CCCN2)n1C , and I need its recorded TGI.
> 100 µM

I have this compound here, CNC(=O)c1ccc(C(=O)NCCCCCN(O)C(=O)CCC(=O)NCCCCCN(O)C(=O)CCC(=O)NCCCCCN(O)C(C)=O)c(O)c1O , and I need its recorded TGI.
> 100 µM

I have this compound here, O=C1NC(N/N=C\C(O)C(O)C(O)C(O)CO)=N/C1=C\c1ccc(Cl)cc1 (stereo not given) , and I need its recorded TGI.
> 100 µM

I have this compound here, O=c1oc2c([N+](=O)[O-])cc([N+](=O)[O-])cc2c2ccccc12 , and I need its recorded TGI.
> 100 µM

I have this compound here, O=C1c2ccccc2CC12CCC1(CC2)OCCO1 , and I need its recorded TGI.
> 100 µM

I have this compound here, O=C1C2=C(C(c3ccccc3)=C1c1ccccc1)c1ccccc1C1(c3ccccc3)C2=C(O)C(c2ccccc2)=C1c1ccccc1 (stereo not given) , and I need its recorded TGI.
> 100 µM

I have this compound here, CCOC(=O)c1cc2c([nH]1)c(OC(C)=O)cc1c2ccn1Cc1ccccc1 , and I need its recorded TGI.
> 100 µM

I have this compound here, CC(C)C(NCc1c2ccccc2[n+]([O-])c2ccccc12)C(=O)O (stereo not given) , and I need its recorded TGI.
86.5 µM

I have this compound here, Cc1ccc(S(=O)(=O)NC2CCCCO2)cc1 (stereo not given) , and I need its recorded TGI.
> 100 µM

I have this compound here, NC1(P(=O)(O)O)CCCCC1 , and I need its recorded TGI.
> 100 µM
